All figures here come from paper PMC8924211.

Target: T1, N-terminal-SNAP-tagged GAL2R, wild type (human, UniProt O43603 1-387, Lumi4-Tb on the SNAP tag)
T1 construct: also called SNAP-GAL2R; GAL2R WT; source: HEK293, transfected, on cells; not shown: SNAP tag, N-terminal, kept
T1 sequence (looked up): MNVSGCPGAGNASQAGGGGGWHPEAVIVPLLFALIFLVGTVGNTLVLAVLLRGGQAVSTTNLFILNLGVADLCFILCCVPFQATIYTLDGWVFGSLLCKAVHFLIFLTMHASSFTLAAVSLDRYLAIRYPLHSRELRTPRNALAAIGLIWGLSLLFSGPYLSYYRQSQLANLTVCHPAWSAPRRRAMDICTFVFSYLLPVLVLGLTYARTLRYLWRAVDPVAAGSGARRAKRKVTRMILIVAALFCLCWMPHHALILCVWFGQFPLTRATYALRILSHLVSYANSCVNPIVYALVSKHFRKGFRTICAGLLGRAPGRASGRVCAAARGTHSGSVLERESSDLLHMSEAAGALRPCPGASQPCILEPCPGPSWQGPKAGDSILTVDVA
Experiment: AlphaScreen or HTRF; competition binding: HEK293 cells transfected with WT SNAP-tagged receptor and labelled with SNAP-Lumi4-Tb, incubated with 50 nM galanin-A2 and increasing concentrations of the unlabeled ligand, 1 h at room temperature; Ki from IC50 by the Cheng-Prusoff equation
Conditions: one partner purified
ASSAY_METRIC: Ki (nM)

>  <BINDER>
GWTLNSAGALLGPHAV (numbers count on: the mature protein) [Gal (1-16, Y9A)]

>  <QUAL>
>

>  <ENDPOINT_RESULT>
100000

$$$$
>  <BINDER>
WTLNSAGYLLGPHAV (numbers count on: the mature protein) [Gal (2-16)]

>  <QUAL>
=

>  <ENDPOINT_RESULT>
49.9

$$$$
>  <BINDER>
GWTLNSAGYLLGP (numbers count on: the mature protein) [Gal (1-13)]

>  <QUAL>
=

>  <ENDPOINT_RESULT>
23.5

$$$$
